Numbered stars: 1 amine (or outer) side, 2 acyl side, 3 side chain; on linkers, the order of the positions; unused ones are H or OH. Bridge positions count the residues as written; N and C are the ends. Square brackets hold non-standard residues; d marks the D form. Peptide text beside a SMILES is read from it. mXylylene = c1cc(C[*:1])cc(C[*:2])c1; Phg = N[C@H](C(=O)O)c1ccccc1; Tle = CC(C)(C)[C@H](N)C(=O)O; NMeS = CN[C@@H](CO)C(=O)O; Nva = CCC[C@H](N)C(=O)O
IC50 tested on Factor XIIa (Homo sapiens, UniProt P00748): recorded values
Sequence (P00748 373-615 limits assumed): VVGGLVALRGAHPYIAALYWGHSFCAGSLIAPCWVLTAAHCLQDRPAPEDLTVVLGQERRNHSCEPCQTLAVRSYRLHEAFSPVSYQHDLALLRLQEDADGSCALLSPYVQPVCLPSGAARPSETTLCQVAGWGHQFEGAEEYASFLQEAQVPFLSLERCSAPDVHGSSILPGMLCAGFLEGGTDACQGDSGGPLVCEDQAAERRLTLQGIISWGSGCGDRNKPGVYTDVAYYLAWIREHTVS

Observe how each entry below is paired with its result.
>  <COMPOUND>
CC[C@H](C)[C@@H]1NC(=O)[C@H](CO)N(C)C(=O)[C@H](CCC(=O)O)NC(=O)[C@@H](NC(=O)[C@@H](N)CCSC)CSCc2cccc(c2)CSC[C@@H](C(=O)N[C@@H](CCCNC(=N)N)C(=O)N[C@H](C(N)=O)C(C)C)NC1=O [Compound R2019, [mXylyl(2,6)]MCE-nMeS-ICRV-NH2] (H-MCE[NMeS]ICRV-NH2; linker 2-6 via mXylylene; N-terminus assumed)

>  <IC50>
> 12.5 µM

$$$$
>  <COMPOUND>
CC[C@H](C)[C@@H]1NC(=O)[C@H](CO)NC(=O)[C@H](CCC(=O)O)NC(=O)[C@@H](NC(=O)[C@@H](N)CCSC)CSCc2cccc(c2)CSC[C@@H](C(=O)N[C@@H](CCCNC(=N)N)C(=O)N[C@H](C(N)=O)C(C)C)NC1=O [Compound R2006, [mXylyl(2,6)]MCESICRV-NH2] (H-MCESICRV-NH2; linker 2-6 via mXylylene)

>  <IC50>
> 100 µM

$$$$

With those in mind, consider the next compound.
What does the record list as IC50 for CCC[C@H](N)C(=O)N[C@H]1CSCc2cccc(c2)CSC[C@@H](C(=O)N[C@@H](CCCNC(=N)N)C(=O)N[C@H](C(N)=O)C(C)(C)C)NC(=O)[C@H](c2ccccc2)NC(=O)[C@@H]2CCCN2C(=O)[C@H](CCC(=O)O)NC1=O [Compound R2030, [mXylyl(2,6)]Nvl-CEP-Phg-CR-Tbg-NH2] (H-[Nva]CEP[Phg]CR[Tle]-NH2; linker 2-6 via mXylylene) ?
> 100 µM

###

Observed pIC50, system Factor XIa (Homo sapiens, UniProt P03951).
pIC50: −log10 of the molar value. Numbered stars: 1 amine (or outer) side, 2 acyl side, 3 side chain; on linkers, the order of the positions; unused ones are H or OH. Bridge positions count the residues as written; N and C are the ends. Square brackets hold non-standard residues; d marks the D form. Peptide text beside a SMILES is read from it. mXylylene = c1cc(C[*:1])cc(C[*:2])c1; Tle = CC(C)(C)[C@H](N)C(=O)O; Mpa = O=C(O)CCS

>  <COMPOUND>
CC[C@H](C)[C@@H]1NC(=O)[C@H](CO)NC(=O)[C@H](CCC(=O)O)NC(=O)[C@@H](NC(C)=O)CSCc2cccc(c2)CSC[C@@H](C(=O)N[C@@H](CCCNC(=N)N)C(=O)N[C@H](C(N)=O)C(C)C)NC1=O [Compound R2023, [mXylyl(1,5)]Ac-CESICRV-NH2] (Ac-CESICRV-NH2; linker 1-5 via mXylylene)

>  <ASSAY_TARGET>
Factor XIa (Homo sapiens, UniProt P03951)
Sequence (P03951 19-387 limits assumed): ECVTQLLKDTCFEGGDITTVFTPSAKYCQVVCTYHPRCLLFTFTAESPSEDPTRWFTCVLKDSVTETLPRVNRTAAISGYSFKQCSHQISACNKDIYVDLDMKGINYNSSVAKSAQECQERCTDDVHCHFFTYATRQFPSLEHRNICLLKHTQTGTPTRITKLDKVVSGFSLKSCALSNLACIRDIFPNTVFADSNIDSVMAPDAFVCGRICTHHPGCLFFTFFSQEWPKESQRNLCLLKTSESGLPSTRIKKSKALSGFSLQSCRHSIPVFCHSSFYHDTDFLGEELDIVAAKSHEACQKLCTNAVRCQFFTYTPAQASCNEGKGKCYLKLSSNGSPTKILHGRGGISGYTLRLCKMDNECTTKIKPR
Sequence (P03951 388-625 limits assumed): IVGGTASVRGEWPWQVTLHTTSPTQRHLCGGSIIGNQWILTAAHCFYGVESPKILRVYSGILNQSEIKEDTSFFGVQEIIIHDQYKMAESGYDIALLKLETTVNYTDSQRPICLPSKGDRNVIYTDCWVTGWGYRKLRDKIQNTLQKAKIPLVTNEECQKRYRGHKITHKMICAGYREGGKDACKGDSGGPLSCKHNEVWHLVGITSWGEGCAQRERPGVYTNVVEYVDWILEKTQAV

>  <pIC50>
< 4.92

$$$$
>  <COMPOUND>
CC[C@H](C)[C@@H]1NC(=O)[C@H](CO)NC(=O)[C@H](CCC(=O)O)NC(=O)CCSCc2cccc(c2)CSC[C@@H](C(=O)N[C@@H](CCCNC(=N)N)C(=O)N[C@H](C(N)=O)C(C)C)NC1=O [Compound R2051, [mXylyl(1,5)](des-NH2)C-ESICRV-NH2] ([Mpa]ESICRV-NH2; linker 1-5 via mXylylene)

>  <ASSAY_TARGET>
Factor XIa (Homo sapiens, UniProt P03951)

>  <pIC50>
< 5.08

$$$$

Shifting focus to the compound that follows.
Form field: pIC50 recorded for CC[C@H](C)[C@@H]1NC(=O)[C@H](CO)NC(=O)[C@H](CCC(=O)O)NC(=O)[C@@H](NC(=O)[C@@H](N)CCSC)CSCc2cccc(c2)CSC[C@@H](C(=O)N[C@@H](CCCNC(=N)N)C(=O)N[C@H](C(N)=O)C(C)(C)C)NC1=O [Compound R2010, [mXylyl(2,6)]MCESICR-Tbg-NH2] (H-MCESICR[Tle]-NH2; linker 2-6 via mXylylene; N-terminus assumed) with Factor XIa (Homo sapiens, UniProt P03951) (enter value)
< 4.82
